Test system: Calf thymus DNA
Assay: Binding affinity to calf thymus DNA assessed as change in melting temperature after 18 hrs
Assay type: nucleic-acid assay
Conditions: Bos taurus
READOUT_NAME: ΔTm (°C)
Respond numerically; units are °C and should not be typed.

Query :: For C/C=C/C1=CN2C(=O)c3cc(O[C@@H]4O[C@@H](C)[C@H](NC)[C@@](C)(O)[C@H]4O)c(C)c(O)c3N[C@H](O)[C@@H]2C1 [SIBIROMYCIN] , what is its reported ΔTm?
Result :: 16.3

Query :: Using the record for "COc1cc2c(cc1OC)C(=O)N1C=C(c3ccc(Oc4ccccc4)cc3)C[C@H]1C=N2" , report its ΔTm.
Result :: 12.1

Query :: Value lookup for ΔTm; key = "COc1cc2c(cc1OC)C(=O)N1C=C(c3ccc(-c4ccccc4)cc3)C[C@H]1C=N2"
Result :: 8.4

Query :: Request the reported ΔTm associated with "COc1cc2c(cc1OC)C(=O)N1C=C(c3ccc(C=O)cc3)C[C@H]1C=N2"
Result :: 10.8

Query :: Dear colleague, I am looking for the recorded ΔTm of the following molecule: "COc1cc2c(cc1OC)C(=O)N1C=C(c3ccc(N)cc3)C[C@H]1C=N2"
Result :: 6.5

Query :: Could you tell me which ΔTm is on file for "COc1cc2c(cc1OC)C(=O)N1C=C(c3ccc4ncccc4c3)C[C@H]1C=N2" ?
Result :: 20.5

Query :: # input molecule: "CCc1ccc(C2=CN3C(=O)c4cc(OC)c(OC)cc4N=C[C@@H]3C2)cc1" ; wanted: its ΔTm
Result :: 9.7

Query :: Item under review: "COc1ccc(C2=CN3C(=O)c4cc(OC)c(OC)cc4N=C[C@@H]3C2)cc1" . Reported ΔTm?
Result :: 10.6

Query :: Would you kindly share the measured ΔTm for "C=Cc1ccc(C2=CN3C(=O)c4cc(OC)c(OC)cc4N=C[C@@H]3C2)cc1" ?
Result :: 9.2

Query :: Requested field: ΔTm. Item: "COc1cc2c(cc1OC)C(=O)N1C=C(c3ccccc3C)C[C@H]1C=N2"
Result :: 6.9

Query :: Look up ΔTm: "COc1cc2c(cc1OC)C(=O)N1C=C(c3ccc(N(C)C)cc3)C[C@H]1C=N2"
Result :: 8

Query :: Which ΔTm reading was recorded for the molecule "COc1cc2c(cc1OC)C(=O)N1C=C(c3ccc(Cl)cc3)C[C@H]1C=N2" ?
Result :: 10.2

Query :: What does the data say about its ΔTm? Entry: "COc1cc2c(cc1OC)C(=O)N1C=C(c3ccc4c(c3)OCO4)C[C@H]1C=N2"
Result :: 10.3

Query :: ΔTm for "COc1cc2c(cc1OC)C(=O)N1C=C(c3cccs3)C[C@H]1C=N2" ?
Result :: 13

Query :: Given "COc1cccc(C2=CN3C(=O)c4cc(OC)c(OC)cc4N=C[C@@H]3C2)c1" , state its recorded ΔTm.
Result :: 10.2

Query :: Form field: reported ΔTm of "COc1cc2c(cc1OC)C(=O)N1C=C(c3c(C)cccc3C)C[C@H]1C=N2"
Result :: 0.5

Query :: Query (molecule): CO[C@H]1Nc2c(ccc(C)c2O)C(=O)N2C=C(/C=C/C(N)=O)C[C@@H]12 [ANTHRAMYCIN METHYL ETHER] ; field requested: ΔTm
Result :: 13

Query :: Looking for the measured ΔTm of "COc1cc2c(cc1OC)C(=O)N1C=C(c3ccc(SC)cc3)C[C@H]1C=N2" , can you help?
Result :: 10.7
